Target: Rap guanine nucleotide exchange factor 3 (Homo sapiens) (UniProt O95398)
Sequence (O95398 whole entry, looked up): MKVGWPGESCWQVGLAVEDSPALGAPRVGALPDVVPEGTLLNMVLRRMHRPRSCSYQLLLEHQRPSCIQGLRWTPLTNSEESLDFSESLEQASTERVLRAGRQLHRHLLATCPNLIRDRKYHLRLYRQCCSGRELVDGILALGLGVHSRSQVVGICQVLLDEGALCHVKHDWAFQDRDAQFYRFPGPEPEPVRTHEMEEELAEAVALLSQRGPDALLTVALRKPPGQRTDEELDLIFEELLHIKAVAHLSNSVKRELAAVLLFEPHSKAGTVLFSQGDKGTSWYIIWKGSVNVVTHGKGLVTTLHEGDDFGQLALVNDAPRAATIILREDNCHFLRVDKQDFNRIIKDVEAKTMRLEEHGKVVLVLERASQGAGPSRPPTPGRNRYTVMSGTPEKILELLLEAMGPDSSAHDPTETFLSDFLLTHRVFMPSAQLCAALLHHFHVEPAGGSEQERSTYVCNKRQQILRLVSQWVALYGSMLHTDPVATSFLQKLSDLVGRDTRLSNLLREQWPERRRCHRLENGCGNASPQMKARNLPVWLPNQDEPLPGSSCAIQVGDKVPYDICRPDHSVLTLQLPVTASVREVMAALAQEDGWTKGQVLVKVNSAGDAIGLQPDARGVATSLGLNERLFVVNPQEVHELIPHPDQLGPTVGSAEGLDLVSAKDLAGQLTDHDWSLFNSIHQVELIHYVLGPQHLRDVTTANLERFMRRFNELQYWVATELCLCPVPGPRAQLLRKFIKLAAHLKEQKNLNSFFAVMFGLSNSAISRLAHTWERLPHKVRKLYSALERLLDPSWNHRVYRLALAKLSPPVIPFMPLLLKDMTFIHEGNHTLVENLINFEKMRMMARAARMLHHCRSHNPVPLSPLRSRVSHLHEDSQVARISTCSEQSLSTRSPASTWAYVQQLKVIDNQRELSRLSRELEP
Assay: Counterscreen qHTS for antagonist of cAMP-regulated guanine nucleotide exchange factor 3 (EPAC1) (AID 1645888);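 further: fluorescence loss as bound BODIPY-GDP is released from Rap1B; % of control where 0% means no effect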
Details: Rap1B-BODIPY-GDP nucleotide exchange, fluorescence; series mostly up to 154 µM
Results filed as inconclusive are left out. Calls of active or inactive are those of the source. The call rests on the fitted dose curve; in most records, active means well fitted inhibition curve with a large enough effect; inconclusive means small, poorly fitted or top-dose-only effect; inactive means no such curve, though single readings can be large or run the other way.
readoutLabel: activity change, negative = inhibition

compound | readoutLabel | result
Cc1nc2c(C(=O)NCc3ccccc3Cl)c[nH]n2c(=O)c1Cc1cccc(Cl)c1 | activity change, negative = inhibition | inactive
O=C(c1noc2c1CCc1ccccc1-2)N1CCCc2ccccc21 | activity change, negative = inhibition | inactive
Cc1cccc(-c2nc3nc(C)cc(NCc4ccccc4Cl)n3n2)c1 | activity change, negative = inhibition | inactive
COCCN(CCOC)Cc1cc(=O)oc2cc(OC)c(Cl)cc12 | activity change, negative = inhibition | -10.8% [at 30.8 µM] (inactive)
CC#C[C@@H](CC)c1ccc2ccn(C)c2c1 | activity change, negative = inhibition | -25.8% [at 30.8 µM] (inactive)
CCOC(=O)c1ccccc1NC(=O)COC(=O)C(Cc1c[nH]c2ccccc12)NC(C)=O (stereo unspecified) | activity change, negative = inhibition | inactive
